FYI, the data here is from PubChem BioAssay AID540263.

molecular target: Importin subunit beta-1 (Homo sapiens) (UniProt Q14974); assay: qHTS Assay for Inhibitors of Rango (Ran-regulated importin-beta cargo) - Importin beta complex formation; conditions: Rango CFP/YFP FRET sensor + importin beta, 45 min; series mostly up to 92.2 µM; further: nearly all actives have a fitted effect of over 15% in size
Sequence (Q14974 whole entry, looked up): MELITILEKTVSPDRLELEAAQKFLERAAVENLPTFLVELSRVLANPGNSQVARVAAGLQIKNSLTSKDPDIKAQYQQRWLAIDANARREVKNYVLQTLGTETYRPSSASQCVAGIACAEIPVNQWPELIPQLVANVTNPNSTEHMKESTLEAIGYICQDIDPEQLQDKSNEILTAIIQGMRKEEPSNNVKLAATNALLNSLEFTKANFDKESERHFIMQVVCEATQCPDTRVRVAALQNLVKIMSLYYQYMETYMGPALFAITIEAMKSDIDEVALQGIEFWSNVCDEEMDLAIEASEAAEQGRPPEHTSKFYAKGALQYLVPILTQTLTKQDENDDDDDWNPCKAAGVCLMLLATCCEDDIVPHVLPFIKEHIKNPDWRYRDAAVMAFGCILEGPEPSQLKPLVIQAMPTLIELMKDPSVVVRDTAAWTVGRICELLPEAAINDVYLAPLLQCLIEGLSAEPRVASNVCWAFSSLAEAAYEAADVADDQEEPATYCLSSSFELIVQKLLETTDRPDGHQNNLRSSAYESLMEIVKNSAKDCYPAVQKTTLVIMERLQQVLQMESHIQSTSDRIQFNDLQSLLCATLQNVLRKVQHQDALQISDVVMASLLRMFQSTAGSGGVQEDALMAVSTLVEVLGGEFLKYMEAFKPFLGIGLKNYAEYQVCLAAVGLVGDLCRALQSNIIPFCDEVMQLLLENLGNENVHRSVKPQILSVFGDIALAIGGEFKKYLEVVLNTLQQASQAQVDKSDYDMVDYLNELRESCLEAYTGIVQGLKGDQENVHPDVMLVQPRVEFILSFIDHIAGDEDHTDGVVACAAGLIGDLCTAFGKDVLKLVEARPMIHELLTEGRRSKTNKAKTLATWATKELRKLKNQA
The whole screen tested about 340,000 compounds, of which about 100 (0.029%) were called active. Another 8% or so got no clear call; they are omitted. The call rests on the fitted dose curve. This is one part of a sample in which actives are shown more often than they occur.
Outcome codes: y for active, n for inactive

[
  {
    "Compound": "Cn1cc(C2OC(=O)c3ccccc32)c2ccccc21 (stereo not drawn)",
    "Test target": "Importin subunit beta-1 (Homo sapiens) (UniProt Q14974)",
    "Group label": "n"
  },
  {
    "Compound": "O=C1OC(Cc2ccccc2)C(c2ccccc2)C1=O (stereo not drawn)",
    "Test target": "Importin subunit beta-1 (Homo sapiens) (UniProt Q14974)",
    "Group label": "n"
  },
  {
    "Compound": "CC(C)(C)Nc1nc(-c2ccccn2)nc2ccccc12",
    "Test target": "Importin subunit beta-1 (Homo sapiens) (UniProt Q14974)",
    "Group label": "y"
  }
]
